Molecular target: T1, human neonatal Fc receptor (hFcRn) (human, UniProt P55899 24-290; P61769 21-119)
T1 construct: Biotinylated in the ELISA, Octet and yeast assays; also called human FcRn; huFcRn
T1 sequence (P55899 24-290 limits assumed, chain 1 of 2): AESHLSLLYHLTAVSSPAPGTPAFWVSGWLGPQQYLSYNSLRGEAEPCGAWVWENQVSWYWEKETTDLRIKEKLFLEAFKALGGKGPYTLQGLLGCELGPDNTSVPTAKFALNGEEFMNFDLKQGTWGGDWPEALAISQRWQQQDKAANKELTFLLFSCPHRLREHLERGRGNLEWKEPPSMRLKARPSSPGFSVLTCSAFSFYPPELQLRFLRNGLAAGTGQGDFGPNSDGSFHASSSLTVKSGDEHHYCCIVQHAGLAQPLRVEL
T1 sequence (P61769 21-119 limits assumed, chain 2 of 2): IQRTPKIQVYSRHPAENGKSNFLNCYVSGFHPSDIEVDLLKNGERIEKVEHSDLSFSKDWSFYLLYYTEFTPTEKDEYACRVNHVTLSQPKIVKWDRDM
Assay: phage ELISA pH 6;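 further: higher score means stronger binding and above about 3 to 5 exceeds background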
testReadout: ELISA score
Could you respond with only the numeric value?

binder	result
L5 isolate with insertion SEQ ID NO: 492 (other) EPKSCDKTHTCPPCPAPELLGGPSVFLFPPKPKDTLMISRTPEVTCVVVDVSHEDPEVKFNWYVDGVEVHNAKTKPREEQYNSTYRVVSVLTVLHQDWLNGKEYKCKVSNKALPAPIEKTISKAKGQPREPQVYTLPPSRDELTKNQVSLTCLVKGFYPSDIAVEWESNGGCMMREQGCGGGQPENNYKTTPPVLDSDGSFFLYSKLTVDKSRWQQGNVFSCSVMHEALHNHYTQKSLSLSPGK	23.9
L5 isolate with insertion SEQ ID NO: 412 (other) EPKSCDKTHTCPPCPAPELLGGPSVFLFPPKPKDTLMISRTPEVTCVVVDVSHEDPEVKFNWYVDGVEVHNAKTKPREEQYNSTYRVVSVLTVLHQDWLNGKEYKCKVSNKALPAPIEKTISKAKGQPREPQVYTLPPSRDELTKNQVSLTCLVKGFYPSDIAVEWESNGGCMQPWAFCGGGQPENNYKTTPPVLDSDGSFFLYSKLTVDKSRWQQGNVFSCSVMHEALHNHYTQKSLSLSPGK	67.4

For record L6B isolate with insertion SEQ ID NO: 457 (other) EPKSCDKTHTCPPCPAPELLGGPSVFLFPPKPKDTLMISRTPEVTCVVVDVSHEDPEVKFNWYVDGVEVHNAKTKPREEQYNSTYRVVSVLTVLHQDWLNGKEYKCKVSNKALPAPIEKTISKAKGQPREPQVYTLPPSRDELGGCNQSSSREACGGTKNQVSLTCLVKGFYPSDIAVEWESNGQPENNYKTTPPVLDSDGSFFLYSKLTVDKSRWQQGNVFSCSVMHEALHNHYTQKSLSLSPGK the listed ELISA score is 49.2
